Items are presented alongside their recorded Potency.
experiment notes: qHTS Validation assay for Inhibitors of Plasmodium falciparum Dd2 growth in vitro; also: potency is read from the fitted curve at half-maximal effect; nearly all actives have a fitted effect of over 70% in size
test parameters: P. falciparum Dd2 in RBCs, SYBR Green growth, 72 h; series mostly up to 28.7 µM
About 1,600 (39%) of roughly 4,100 compounds were called active. Roughly 25% stayed inconclusive and do not appear here. The list shows a part of the results.
recorded metric: Potency

* CCC(CC)c1cc([C@H]2CN3CC[C@H]2C[C@@H]3CNS(=O)(=O)c2ccccc2C#N)nc(-c2ccncc2)n1 | 1.5 µM (active)
* COc1ccc(OC)c(S(=O)(=O)NC[C@H]2C[C@@H]3CCN2C[C@@H]3c2cc(-c3ccc(F)cc3)nn2C)c1 | 6.68 µM (active)
* COC1C(=O)N(c2cccc(F)c2)C12CCNCC2 (stereo not given) | 10.6 µM (active)
* Clc1ccc(C(Cn2ccnc2)OCc2csc3c(Cl)cccc23)c(Cl)c1 (stereo not given) | 2.37 µM (active)
* N#Cc1nn(-c2c(Cl)cc(C(F)(F)F)cc2Cl)c(N)c1S(=O)C(F)(F)F (stereo not given) | 9.44 µM (active)
